- Tested on: upland rice (Oryza sp., var. Tebonnet, RICE)
- protocol-text: Post-emerge test, crop safety
- Assay type: in vivo
- condition-summary: 63 g ai/ha; phytotoxicity rating 0-100 (0 no damage, 100 complete death), 14 days after application
- Procedure: A standard greenhouse herbicide activity screening system was used to evaluate the herbicidal efficacy and crop safety of these test compounds. […] At 14 days after application of the test materials, phytotoxicity ratings were recorded. […]
property-label: Post-emerge Herbicidal Activity RICE (crop damage)
The answer should be a number; do not append a unit.

State the recorded Post-emerge Herbicidal Activity RICE (crop damage) for this entry: `COc1c(Cl)cc(F)c(-n2c(=O)cc(C(F)(F)F)n(N)c2=O)c1N`
30

// query Post-emerge Herbicidal Activity RICE (crop damage) value for entry `CC(C)Oc1c(Cl)cc(F)c(-n2c(=O)cc(C(F)(F)F)n(C)c2=O)c1N`
10

State the recorded Post-emerge Herbicidal Activity RICE (crop damage) for this entry: `COc1c(Cl)cc(F)c(-n2c(=O)cc(C(F)(F)F)n(C)c2=O)c1NC(=O)c1cccc(C)c1`
50

For the compound shown here, `COc1c(Cl)cc(F)c(-n2c(=O)c(NC(=O)C(F)(F)F)c(C(F)(F)F)n(C)c2=O)c1NC(=O)C(F)(F)F` , give the reported Post-emerge Herbicidal Activity RICE (crop damage).
0

====

- Test system: ivyleaf morningglory (Ipomoea hederacea, IPOHE)
- protocol-text: Post-emerge test, greenhouse herbicide activity screening
- Assay type: in vivo
- condition-summary: 63 g ai/ha; phytotoxicity rating 0-100 (0 no damage, 100 complete death), 14 days after application
property-label: Post-emerge Herbicidal Activity IPOHE
I only need the number, thanks.

Can you share its Post-emerge Herbicidal Activity IPOHE? I mean this compound: `COc1c(Cl)cc(F)c(-n2c(=O)cc(C(F)(F)F)n(C)c2=O)c1NS(=O)(=O)c1ccc(C)cc1`
0

Need Post-emerge Herbicidal Activity IPOHE of `COc1c(Cl)cc(F)c(-n2c(=O)cc(C(F)(F)F)n(N)c2=O)c1N` , thanks.
100

// returns reported Post-emerge Herbicidal Activity IPOHE for input `COc1c(Cl)cc(F)c(-n2c(=O)cc(C(F)(F)F)n(C)c2=O)c1N1CCCC1`
0

# lookup: Post-emerge Herbicidal Activity IPOHE of `CCc1ccc(C(=O)Nc2c(OCC#N)c(Cl)cc(F)c2-n2c(=O)cc(C(F)(F)F)n(C)c2=O)cc1`
60

====

- Tested on: johnsongrass (Sorghum halepense, SORHA)
- protocol-text: Post-emerge test, greenhouse herbicide activity screening
- Type: in vivo
- condition-summary: 250 g ai/ha; phytotoxicity rating 0-100 (0 no damage, 100 complete death), 14 days after application
Would you kindly list Post-emerge Herbicidal Activity SORHA for each of these compounds?
# output: bare number, no unit

Would you kindly share the measured Post-emerge Herbicidal Activity SORHA for COc1c(Cl)cc(F)c(-n2c(=O)cc(C(F)(F)F)n(C)c2=O)c1NS(=O)(=O)c1ccc(C)cc1 [2-26] ?
0

Find the recorded Post-emerge Herbicidal Activity SORHA belonging to CCn1c(C(F)(F)F)cc(=O)n(-c2c(F)cc(Cl)c(OC)c2N)c1=O [Compound 1-15] and report it.
0

Given CCOC(=O)C(C)Nc1c(OC)c(Cl)cc(F)c1-n1c(=O)cc(C(F)(F)F)n(C)c1=O (centres unmarked) [Compound 1-55] , state its recorded Post-emerge Herbicidal Activity SORHA.
0

Fill blank: measured Post-emerge Herbicidal Activity SORHA of the compound CCCc1ccc(C(=O)N(C(=O)c2ccc(CCC)cc2)c2c(OC)c(Cl)cc(F)c2-n2c(=O)cc(C(F)(F)F)n(C)c2=O)cc1 [2-29] is ____.
10

What Post-emerge Herbicidal Activity SORHA value was documented for this compound, Cn1c(C(F)(F)F)cc(=O)n(-c2c(F)cc(Cl)c(OCc3ccccc3)c2N)c1=O [Compound 1-22] ?
10

Dear colleague, I am looking for the recorded Post-emerge Herbicidal Activity SORHA of the following compound: COc1c(Cl)cc(F)c(-n2c(=O)cc(C(F)(F)F)n(C)c2=O)c1N=CN(C)C [Compound 1-31]
0

Look at this compound and give its reported Post-emerge Herbicidal Activity SORHA. COC(=O)C(=O)Nc1c(OC)c(Cl)cc(F)c1-n1c(=O)cc(C(F)(F)F)n(C)c1=O [2-15]
0

Which Post-emerge Herbicidal Activity SORHA value is on record for CCOC(=O)C(C)Oc1c(Cl)cc(F)c(-n2c(=O)cc(C(F)(F)F)n(C)c2=O)c1N (centres unmarked) [Compound 1-60] ?
20
